Data provenance is patent US20230357414A1.

study.system: T1, extracellular domain of mouse IL12Rb2 (614 amino acids, amino acids 24-637 of the mIL12Rb2 precursor, UniProt … (mouse, UniProt P97378 24-637))
T1 construct: also called mIL12Rb2 ECD; mIL12Rb2 ECD antigen
T1 sequence: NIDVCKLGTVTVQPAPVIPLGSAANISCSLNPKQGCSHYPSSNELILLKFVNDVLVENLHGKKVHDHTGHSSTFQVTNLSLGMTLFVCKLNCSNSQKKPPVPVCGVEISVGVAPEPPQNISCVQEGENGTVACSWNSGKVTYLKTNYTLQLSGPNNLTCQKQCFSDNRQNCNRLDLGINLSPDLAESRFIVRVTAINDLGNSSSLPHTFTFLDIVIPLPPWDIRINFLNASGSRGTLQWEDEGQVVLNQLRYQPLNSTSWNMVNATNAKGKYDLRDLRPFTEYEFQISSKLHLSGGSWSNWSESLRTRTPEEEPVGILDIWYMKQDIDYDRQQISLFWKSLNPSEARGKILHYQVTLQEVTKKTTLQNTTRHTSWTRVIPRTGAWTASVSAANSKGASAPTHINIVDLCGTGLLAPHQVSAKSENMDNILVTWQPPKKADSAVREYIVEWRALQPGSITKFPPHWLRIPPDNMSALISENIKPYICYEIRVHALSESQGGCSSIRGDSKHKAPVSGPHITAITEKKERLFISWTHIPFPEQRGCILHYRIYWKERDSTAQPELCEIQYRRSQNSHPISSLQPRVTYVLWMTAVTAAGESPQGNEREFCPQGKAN
measurement.notes: periplasmic extract ELISA on antigen-coated plate; positive if A450 at least threefold over PBS-coated control
endpoint.label: binding result

[[record]]
binder = "mIL12Rb2 VHH6 (VHH, Camel VHH, tested as a periplasmic extract of a phage clone; also called anti-mouse IL12Rb2 VHH6; not shown: HA/His tag encoded by the pMECS phagemid) VHH: QVQLQESGGGSVQAGGSLRLSCAVSGKAYGGAWFRQAQGKGREGVAAIWIGTGTTFYADSVKGRFTISRDNAKNTVYLQMDGLKPEDTAVYYCAADDRPGYRDPLAPVSYNHWGQGTQVTVSS"
data_value = "binds"

[[record]]
binder = "mIL12Rb2 VHH9 (VHH, Camel VHH, tested as a periplasmic extract of a phage clone; also called anti-mouse IL12Rb2 VHH9; not shown: HA/His tag encoded by the pMECS phagemid) VHH: QVQLQESGGGSVQAGGSLTLSCVVSGKAFGGAWFRQAQGKGREGVAAIWIGTGTTFYADSVKGRFTISRDNAKNTVYLQMDGLKPDDTAMYYCAADDRPGYRDPLAPVSYNHWGQGTQVTVSS"
data_value = "binds"

